System: renal SN12C
method: COMPARE screening (NCI human cancer cell line screen), cytotoxicity GI50
Format: cell-based
observationType: GI50 (µM)
Field: numeric (µM). Do not append units.

{"compound": "CC(C)(C)OC(=O)NCCCCCCCCCn1c2c(c3ccccc3c1=O)C(=O)c1ccccc1-2 [Compound 5ah]", "recordedNumber": 77.6}
{"compound": "NCCCn1c2c(c3ccccc3c1=O)C(=O)c1ccccc1-2 [Compound S-3, reference compound]", "recordedNumber": 0.16}
{"compound": "COc1ccc2c(c1)C(=O)c1c-2n(CCCn2ccnc2)c(=O)c2ccccc12 [Compound 5bs]", "recordedNumber": 0.676}

Entry COc1ccc2c(c1)C(=O)c1c-2n(CCCN2CCOCC2)c(=O)c2ccccc12 [Compound 5bk] , GI50 reported as 4.07

Entry COc1cc2c3c(n(CCCN4CCCC(O)C4)c(=O)c2cc1OC)-c1cc2c(cc1C3=O)OCO2.Cl (stereo not drawn) [Compound 5s, Hydrochloride] , GI50 reported as 0.126

Entry O=C(O)C(F)(F)F.O=C(O)C(F)(F)F.O=C(O)C(F)(F)F.O=C1c2ccccc2-c2c1c1ccccc1c(=O)n2CCNCCNCCNCCn1c2c(c3ccccc3c1=O)C(=O)c1ccccc1-2 [Compound 14i] , GI50 reported as 0.017

Entry O=C1c2ccccc2-c2c1c1ccccc1c(=O)n2CCCn1ccnc1 [Compound 5g] , GI50 reported as 1.66

Entry CC(C)(C)OC(=O)NCCCCCCCn1c2c(c3ccccc3c1=O)C(=O)c1ccccc1-2 [Compound 5af] , GI50 reported as 74.1

Entry COc1ccc2c(c1)C(=O)c1c-2n(CCCNCCO)c(=O)c2ccccc12.Cl [Compound 5bn] , GI50 reported as 0.158

Entry O=C(O)C(F)(F)F.O=C(O)C(F)(F)F.O=C1c2ccccc2-c2c1c1ccccc1c(=O)n2CCCN1CCN(CCCn2c3c(c4ccccc4c2=O)C(=O)c2ccccc2-3)CC1 [Compound 14f] , GI50 reported as 15.5

* * *

compounds and their reported melting point

{"compound": "C=CCOc1cc2c3c(n(CCCN4CCOCC4)c(=O)c2cc1OC)-c1cc2c(cc1C3=O)OCO2", "melting point": "199 to 200 °C (dec.)"}
{"compound": "Cl.NCCCCCCCCCCn1c2c(c3ccccc3c1=O)C(=O)c1ccccc1-2", "melting point": "189 to 192 °C"}

Entry COC1C=c2c3c([nH]c(=O)c2=CC1(CCCN1CCSCC1)OC)-c1cc2c(cc1C3=O)OCO2 (stereo not shown) , melting point reported as 306 to 308 °C

Entry Cl.NCCCCCCCCn1c2c(c3ccccc3c1=O)C(=O)c1ccccc1-2 , melting point reported as 182 to 185 °C

* * *

Test system: breast MDA-MB-435
method: COMPARE screening (NCI human cancer cell line screen), cytotoxicity GI50
Type: cell-based
observationType: GI50 (nM)
Field: numeric (nM). Do not append units.

{"compound": "[N-]=[N+]=NCCCn1c2c(c3ccccc3c1=O)C(=O)c1ccccc1-2", "observationType": "GI50", "valueUnit": "nM", "recordedNumber": 7760}
{"compound": "COc1ccc2c(c1)C(=O)c1c-2n(CCCI)c(=O)c2cc([N+](=O)[O-])ccc12", "observationType": "GI50", "valueUnit": "nM", "recordedNumber": 1480}
{"compound": "COc1ccc2c(c1)C(=O)c1c-2n(CCCNCCO)c(=O)c2ccccc12.Cl", "observationType": "GI50", "valueUnit": "nM", "recordedNumber": 389}

For O=C(O)C(F)(F)F.O=C(O)C(F)(F)F.O=C1c2ccccc2-c2c1c1ccccc1c(=O)n2CCNCCNCCn1c2c(c3ccccc3c1=O)C(=O)c1ccccc1-2 [Compound 14c] on breast MDA-MB-435, measured GI50 was 1660
